Origin of values: ChEMBL document CHEMBL5727697

molecular target: Non-receptor tyrosine-protein kinase TYK2 (Homo sapiens, UniProt P29597); experiment: Binding Assay: Binding constants for compounds of the present invention against the JH2 domain were determined by the following protocol for a KINOMEscan® assay (DiscoveRx). A fusion protein of a partial length construct of human TYK2 (JH2domain-pseudokinase) (amino acids G556 to D888 based on reference sequence NP_003322.3) and the DNA binding domain of NFkB was expressed in transiently transfected HEK293 cells. From these HEK 293 cells, extracts were prepared in M-PER extraction buffer (Pierce) in the presence of Protease Inhibitor Cocktail Complete (Roche) and Phosphatase Inhibitor Cocktail Set II (Merck) per manufacturers' instructions. The TYK2 (JH2domain-pseudokinase) fusion protein was labeled with a chimeric double-stranded DNA tag containing the NFkB binding site (5′-GGGAATTCCC-3′) fused to an amplicon for qPCR readout, which was added directly to the expression extract (the final concentration of DNA-tag in the binding reaction is 0.1 nM).
Sequence (P29597 whole entry, the tested form may be a part): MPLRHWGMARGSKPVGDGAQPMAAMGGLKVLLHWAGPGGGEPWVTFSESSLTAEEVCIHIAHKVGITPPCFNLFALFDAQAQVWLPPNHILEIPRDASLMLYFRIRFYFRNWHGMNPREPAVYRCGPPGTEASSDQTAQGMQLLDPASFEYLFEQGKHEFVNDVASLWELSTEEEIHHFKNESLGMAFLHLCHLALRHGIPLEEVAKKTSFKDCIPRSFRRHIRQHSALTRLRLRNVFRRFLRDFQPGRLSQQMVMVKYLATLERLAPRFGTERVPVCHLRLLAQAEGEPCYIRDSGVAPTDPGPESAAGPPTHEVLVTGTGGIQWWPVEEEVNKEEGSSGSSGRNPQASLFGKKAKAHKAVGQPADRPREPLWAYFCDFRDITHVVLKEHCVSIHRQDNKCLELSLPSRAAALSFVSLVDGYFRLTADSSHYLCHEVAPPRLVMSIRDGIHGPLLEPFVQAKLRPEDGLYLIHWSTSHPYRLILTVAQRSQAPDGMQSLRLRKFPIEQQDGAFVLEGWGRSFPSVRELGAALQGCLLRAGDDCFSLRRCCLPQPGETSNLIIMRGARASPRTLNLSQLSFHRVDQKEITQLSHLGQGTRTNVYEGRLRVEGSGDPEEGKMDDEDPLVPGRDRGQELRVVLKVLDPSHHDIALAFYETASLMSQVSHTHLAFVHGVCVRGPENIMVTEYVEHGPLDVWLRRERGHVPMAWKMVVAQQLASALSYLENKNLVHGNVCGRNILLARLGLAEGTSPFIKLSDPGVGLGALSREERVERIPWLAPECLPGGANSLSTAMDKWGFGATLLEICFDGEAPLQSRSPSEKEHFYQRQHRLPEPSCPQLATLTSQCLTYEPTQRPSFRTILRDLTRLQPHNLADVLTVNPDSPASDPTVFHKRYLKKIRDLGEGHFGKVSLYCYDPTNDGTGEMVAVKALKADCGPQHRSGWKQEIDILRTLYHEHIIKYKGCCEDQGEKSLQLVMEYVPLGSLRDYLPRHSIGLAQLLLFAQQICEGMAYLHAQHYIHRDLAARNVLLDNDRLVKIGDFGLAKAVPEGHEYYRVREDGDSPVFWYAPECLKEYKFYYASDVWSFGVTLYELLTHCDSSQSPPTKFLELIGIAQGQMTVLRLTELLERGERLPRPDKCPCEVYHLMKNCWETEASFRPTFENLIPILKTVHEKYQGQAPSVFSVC
MEASURE: Kd

Cn1cncc1-c1ccc(Nc2cc(NC(=O)[C@@H]3C[C@@H]3F)nc3[nH]c(C(F)F)nc23)c(S(C)(=O)=O)c1
< 0.1 nM
COCCNc1ccc(Nc2cc(Nc3ccccc3N(C)S(C)(=O)=O)c3nc(C)[nH]c3n2)nc1C#N
< 0.1 nM
Cc1nc2c(Nc3ccc(-c4cnn(C)c4C)cc3S(C)(=O)=O)cc(Nc3cccc(C#N)n3)nc2[nH]1
< 0.1 nM
CN(c1cc(-c2cncn2C)ccc1Nc1cc(NC(=O)[C@@H]2C[C@@H]2F)nc2[nH]c(C(F)F)nc12)S(C)(=O)=O
< 0.1 nM
COc1ccccc1Nc1cc(Nc2ccc(N3CCC4(CCOCC4)CC3)cn2)nc2[nH]c(C)nc12
> 10 nM
COc1c(Nc2cc(Nc3ccc(C(C)(C)OC)c(C#N)n3)nc3[nH]c(C)nc23)cccc1-c1nnn(C)n1
> 10 nM
Cc1c(-c2ccc(Nc3cc(NC(=O)C4CC4)nc4[nH]c(C(F)F)nc34)c(S(C)(=O)=O)c2)cnn1C
< 0.1 nM
